tested on: subcutaneously pentetrazol-injected model (scPTZ); assay: Subcutaneously pentetrazol-injected model (scPTZ) test; type: in vivo, mice; conditions: Mus musculus, po, 1 h, 100 mg/kg oral, Slc: ddY male mice, 3 per group, pentetrazol 85 mg/kg s.c. after 1 hour, observed 30 minutes for clonic convulsion; read-out: scPTZ (positive number/tested number) (converted)
measured.parameter: responders at 100 mg/kg (%)
Kindly provide the numeric value in % only, without the unit symbol.

Solved cases below.
compound: N#Cc1c(-c2ccccc2CC(N)=O)cccc1C(F)(F)F [Example 108]
unit.text: %
responders at 100 mg/kg: 66.7

compound: CN(C)C(=O)Cc1ccccc1-c1ccc(F)cc1 [Example 24]
unit.text: %
responders at 100 mg/kg: 0

compound: NC(=O)C(O)c1ccccc1-c1cccc(F)c1 (centres unmarked) [Example 178]
unit.text: %
responders at 100 mg/kg: 100

compound: NC(=O)Cc1ccccc1-c1cc(F)ccc1F [Example 152, 2-(2′,5′-difluorobiphenyl-2-yl)acetamide]
unit.text: %
responders at 100 mg/kg: 100

Consider now this further compound.
Per the reported subcutaneously pentetrazol-injected model (scPTZ) data, NC(=O)Cc1ccccc1-c1ccc(Cl)c(C(F)(F)F)c1 [Example 75] has responders at 100 mg/kg of 66.7
